Molecular target: MutSβ (Homo sapiens, UniProt P20585+P43246)
Sequence (P43246 whole entry): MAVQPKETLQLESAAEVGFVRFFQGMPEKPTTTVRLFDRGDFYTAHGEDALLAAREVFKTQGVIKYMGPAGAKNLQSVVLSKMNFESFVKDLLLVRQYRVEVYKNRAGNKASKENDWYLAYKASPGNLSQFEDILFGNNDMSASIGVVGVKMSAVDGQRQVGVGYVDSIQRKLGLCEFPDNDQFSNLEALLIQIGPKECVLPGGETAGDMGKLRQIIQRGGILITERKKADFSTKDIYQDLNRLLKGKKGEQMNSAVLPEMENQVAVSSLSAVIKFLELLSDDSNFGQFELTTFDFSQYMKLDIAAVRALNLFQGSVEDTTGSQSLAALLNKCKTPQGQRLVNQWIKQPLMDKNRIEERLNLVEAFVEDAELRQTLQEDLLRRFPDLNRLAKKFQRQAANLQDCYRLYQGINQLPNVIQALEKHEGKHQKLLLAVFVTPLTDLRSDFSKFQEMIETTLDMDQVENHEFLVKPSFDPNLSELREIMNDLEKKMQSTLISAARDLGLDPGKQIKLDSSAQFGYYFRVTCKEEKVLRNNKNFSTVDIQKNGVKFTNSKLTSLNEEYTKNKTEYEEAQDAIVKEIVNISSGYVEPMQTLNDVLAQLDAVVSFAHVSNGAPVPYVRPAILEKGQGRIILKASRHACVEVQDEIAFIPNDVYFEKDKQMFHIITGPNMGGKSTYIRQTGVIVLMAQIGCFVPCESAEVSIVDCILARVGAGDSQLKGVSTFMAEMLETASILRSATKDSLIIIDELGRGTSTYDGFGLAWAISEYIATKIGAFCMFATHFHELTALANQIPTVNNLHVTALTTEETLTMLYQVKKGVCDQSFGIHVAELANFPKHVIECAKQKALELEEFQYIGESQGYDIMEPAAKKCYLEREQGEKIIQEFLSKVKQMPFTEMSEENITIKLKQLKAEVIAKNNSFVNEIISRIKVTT
Sequence (P20585 whole entry): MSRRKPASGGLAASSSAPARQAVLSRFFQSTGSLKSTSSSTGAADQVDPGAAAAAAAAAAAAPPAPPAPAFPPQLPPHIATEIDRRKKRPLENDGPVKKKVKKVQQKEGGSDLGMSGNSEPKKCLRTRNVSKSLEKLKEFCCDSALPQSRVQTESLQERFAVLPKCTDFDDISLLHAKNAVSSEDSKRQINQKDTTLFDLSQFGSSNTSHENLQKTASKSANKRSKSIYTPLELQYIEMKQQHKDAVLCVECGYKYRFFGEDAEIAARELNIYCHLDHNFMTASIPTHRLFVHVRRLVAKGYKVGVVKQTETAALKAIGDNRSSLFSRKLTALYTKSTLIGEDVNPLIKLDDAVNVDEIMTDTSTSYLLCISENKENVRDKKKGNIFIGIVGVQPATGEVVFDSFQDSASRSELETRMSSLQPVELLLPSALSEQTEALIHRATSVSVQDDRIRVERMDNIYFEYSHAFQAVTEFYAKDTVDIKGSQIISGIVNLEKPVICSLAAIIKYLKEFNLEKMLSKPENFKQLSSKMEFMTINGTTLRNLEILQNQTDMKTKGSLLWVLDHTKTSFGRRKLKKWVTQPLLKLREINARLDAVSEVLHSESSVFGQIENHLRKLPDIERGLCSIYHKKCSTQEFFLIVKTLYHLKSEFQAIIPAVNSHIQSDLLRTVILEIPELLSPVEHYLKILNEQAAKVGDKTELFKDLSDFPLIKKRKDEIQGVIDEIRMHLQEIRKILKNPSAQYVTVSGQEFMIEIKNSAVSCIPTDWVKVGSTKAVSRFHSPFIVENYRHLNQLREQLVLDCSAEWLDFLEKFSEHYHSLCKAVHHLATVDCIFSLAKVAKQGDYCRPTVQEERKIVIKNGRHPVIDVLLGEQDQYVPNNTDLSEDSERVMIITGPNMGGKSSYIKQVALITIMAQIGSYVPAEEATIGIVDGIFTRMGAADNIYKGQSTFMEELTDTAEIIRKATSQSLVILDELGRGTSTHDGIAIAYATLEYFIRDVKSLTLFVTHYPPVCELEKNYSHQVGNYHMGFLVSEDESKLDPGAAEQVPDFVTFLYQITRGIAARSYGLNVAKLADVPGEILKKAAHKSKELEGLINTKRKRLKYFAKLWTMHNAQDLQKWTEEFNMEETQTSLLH
Assay: MutSβ ADP Glo Assay
Settings: 20nM MutSβ, 30nM CAG DNA, 25 µM ATP, 2 hours at room temperature
PROPERTY NAME: IC50

Worked examples, 2 compounds total:
CNS(=O)(=O)OCC(=O)Nc1nc(C)c(Cc2cc(F)cc(Cl)c2)s1 = 1000 to 10000 nM
CNS(=O)(=O)OCC(=O)Nc1nc(C)c(Cc2cccc(C)c2)s1 = 1000 to 10000 nM

Here is the next item to consider.
Value lookup for IC50; key = Cc1ccc(Cc2sc(NC(=O)COS(=O)(=O)N3CCC3)nc2C)cc1
≤ 500 nM

* * *

System: U20S-IC6 cells
Experiment: Lo-Q platform assay (CAG repeat expansion in a clonal cell line with tetracycline-regulated exon 1 HTT ~100 CAG / nanoluc)
Type: cell-based
Conditions: 336 h, 2-week assay with tetracycline pulsing, read-out: Minimum effective concentration (MEC)
minimal effective concentration listing for selected molecules.

Worked examples, 4 molecules total:
CCNS(=O)(=O)OCC(=O)Nc1nc(C)c(Cc2cccc(Cl)c2)s1 [Example 46] = ≤ 0.1 µM
CCNS(=O)(=O)OCC(=O)Nc1nc(C)c(Cc2ccc(C)cc2)s1 [Example 15] = 0.5 to 1 µM
CNS(=O)(=O)OCC(=O)N(C)c1nc(C)c(Cc2cccc(Cl)c2)s1 [Example 1] = ≤ 0.1 µM
CNS(=O)(=O)OCC(=O)Nc1nc(C)c(Cc2ccc(F)c(F)c2)s1 [Example 14] = 0.1 to 0.5 µM

Here is the next item to consider.
Value lookup for minimal effective concentration; key = CNS(=O)(=O)OCC(=O)Nc1nc(C)c(Cc2cccc(Cl)c2)s1 [Example 19]
≤ 0.1 µM

* * *

IC50 listing for selected compounds.
Target: MutSβ (Homo sapiens, UniProt P20585+P43246)
Construct: purchased AMRI
Experiment: MutSβ ADP Glo Assay
Assay type: biochemical
Settings: 20nM MutSβ, 30nM CAG DNA, 25 µM ATP, 2 hours at room temperature

Query the reported IC50 for MutSβ (Homo sapiens, UniProt P20585+P43246); item: CNS(=O)(=O)OCC(=O)Nc1nc(C)c(Cc2ccccc2Cl)s1
1000 to 10000 nM

Query the reported IC50 for MutSβ (Homo sapiens, UniProt P20585+P43246); item: CNS(=O)(=O)OCC(=O)Nc1nc(C)c(Cc2cccc(Br)c2)s1
≤ 500 nM

Query the reported IC50 for MutSβ (Homo sapiens, UniProt P20585+P43246); item: CCN(C(=O)COS(=O)(=O)NC)c1nc(C)c(Cc2cccc(Cl)c2)s1
500 to 1000 nM

Query the reported IC50 for MutSβ (Homo sapiens, UniProt P20585+P43246); item: Cc1ccc(Cc2sc(NC(=O)COS(=O)(=O)N(C)C)nc2C)cc1
1000 to 10000 nM

Query the reported IC50 for MutSβ (Homo sapiens, UniProt P20585+P43246); item: Cc1ccc(Cc2sc(NC(=O)COS(=O)(=O)NC3CC3)nc2C)cc1
1000 to 10000 nM

Query the reported IC50 for MutSβ (Homo sapiens, UniProt P20585+P43246); item: CNS(=O)(=O)OCC(=O)N(C)c1nc(C)c(Cc2ccc(Cl)c(Cl)c2)s1
≤ 500 nM

* * *

Target: MutSβ (Homo sapiens, UniProt P20585+P43246)
Experiment: MutSβ ADP Glo Assay
Conditions: 20nM MutSβ, 30nM CAG DNA, 25 µM ATP, 2 hours at room temperature
IC50 listing for selected compounds.

Worked examples, 6 compounds total:
CNC(=O)OCc1nc(NC(=O)COS(=O)(=O)NC)sc1Cc1cccc(Cl)c1 [Example 60] = 1 to 10 µM
CNS(=O)(=O)OCC(=O)Nc1nc(C)c(Cc2ccc(C)cc2)s1 [Example 47] = 1 to 10 µM
CCNS(=O)(=O)OCC(=O)Nc1nc(C)c(Cc2ccc(C)cc2)s1 [Example 15] = 1 to 10 µM
CNS(=O)(=O)OCC(=O)Nc1nc(CN2CCOCC2)c(Cc2cccc(Cl)c2)s1 [Example 58] = 10 to 50 µM
CNS(=O)(=O)OCC(=O)Nc1nc(C)c(Cc2cccc3ccccc23)s1 [Example 48] = 10 to 50 µM
CNS(=O)(=O)OCC(=O)Nc1nc(C)c(Cc2cccc(Cl)c2)s1 [Example 19] = 0.5 to 1 µM

Value lookup for IC50; key = Cc1nc(NC(=O)COS(=O)(=O)N(C)C)sc1Cc1cccc(C(F)(F)F)c1 [Example 13]
1 to 10 µM

Value lookup for IC50; key = CNS(=O)(=O)OCC(=O)Nc1nc(C)c(Cc2cccc(F)c2)s1 [Example 27]
1 to 10 µM

Value lookup for IC50; key = CCCNS(=O)(=O)OCC(=O)Nc1nc(C)c(Cc2ccc(C)cc2)s1 [Example 41]
1 to 10 µM

Value lookup for IC50; key = CNS(=O)(=O)OCC(=O)Nc1nc(C)c(Cc2ccc(F)c(Cl)c2)s1 [Example 7]
≤ 0.5 µM

Value lookup for IC50; key = Cc1ccc(Cc2sc(NC(=O)COS(=O)(=O)NCc3ccccc3)nc2C)cc1 [Example 45]
1 to 10 µM

Value lookup for IC50; key = CNS(=O)(=O)OCC(=O)Nc1nc(C)c(CCc2ccc(Cl)cc2)s1 [Example 38]
10 to 50 µM

Value lookup for IC50; key = Cc1ccc(Cc2sc(NC(=O)COS(N)(=O)=O)nc2C)cc1 [Example 3]
1 to 10 µM

Value lookup for IC50; key = Cc1nc(NC(=O)COS(=O)(=O)N(C)C)sc1Cc1ccccc1 [Example 28]
1 to 10 µM

Value lookup for IC50; key = CNS(=O)(=O)OCC(=O)Nc1nc(C(F)(F)F)c(Cc2ccc(C)cc2)s1 [Example 44]
1 to 10 µM

Value lookup for IC50; key = CNS(=O)(=O)OCC(=O)Nc1nc(C)c(Cc2ccc(Cl)c(Cl)c2)s1 [Example 12]
≤ 0.5 µM

Value lookup for IC50; key = CNS(=O)(=O)OCC(=O)Nc1nc(C)c(Cc2ccc(F)c(F)c2)s1 [Example 14]
1 to 10 µM

Value lookup for IC50; key = Cc1nc(NC(=O)COS(=O)(=O)N(C)C)sc1Cc1ccc(F)cc1 [Example 4]
0.5 to 1 µM

* * *

IC50 listing for selected molecules.
Biological target: MutSβ (Homo sapiens, UniProt P20585+P43246)
Construct: purchased AMRI
Test: MutSβ ADP Glo Assay
Assay type: biochemical
Conditions: 20nM MutSβ, 30nM CAG DNA, 25 µM ATP, 2 hours at room temperature

Value lookup for IC50; key = CNS(=O)(=O)OCC(=O)Nc1nc(C)c(Oc2cccc(Cl)c2)s1
0.5 to 1 µM

Value lookup for IC50; key = Cc1ccc(Cc2sc(NC(=O)COS(=O)(=O)N3CCCC3)nc2C)cc1
1 to 10 µM

Value lookup for IC50; key = CCN(C)S(=O)(=O)OCC(=O)Nc1nc(C)c(Cc2ccc(C)cc2)s1
1 to 10 µM

Value lookup for IC50; key = CNS(=O)(=O)OCC(=O)Nc1nc(CO)c(Cc2ccc(C)cc2)s1
10 to 50 µM

Value lookup for IC50; key = CNS(=O)(=O)OCC(=O)Nc1nc(C=O)c(Cc2cccc(Cl)c2)s1
1 to 10 µM

Value lookup for IC50; key = CCNS(=O)(=O)OCC(=O)Nc1nc(C)c(Cc2cccc(Cl)c2)s1
≤ 0.5 µM

Value lookup for IC50; key = Cc1nc(NC(=O)COS(=O)(=O)N(C)C)sc1Cc1ccccc1F
1 to 10 µM

Value lookup for IC50; key = CNS(=O)(=O)OCC(=O)Nc1nc(C(C)C)c(Cc2ccc(C)cc2)s1
10 to 50 µM

* * *

IC50 listing for selected compounds.
Target: MutSβ (Homo sapiens, UniProt P20585+P43246)
Assay: MutSβ ADP Glo Assay
Settings: 20nM MutSβ, 30nM CAG DNA, 25 µM ATP, 2 hours at room temperature

Worked examples, 5 compounds total:
Cc1ccc(Cc2sc(NC(=O)COS(=O)(=O)NC(C)C)nc2C)cc1 [Example 23] = 1000 to 10000 nM
CNS(=O)(=O)OCC(=O)Nc1nc(C)c(Cc2ccc(OC)cc2)s1 [Example 26] = 1000 to 10000 nM
CNS(=O)(=O)OCC(=O)Nc1nc(C)c(Cc2ccc3ccccc3c2)s1 [Example 5] = 1000 to 10000 nM
CNS(=O)(=O)OCC(=O)Nc1nc2c(s1)C(c1cccc(Cl)c1)CCC2 (stereo not drawn) [Example 62] = ≤ 500 nM
CNS(=O)(=O)OCC(=O)Nc1nc(COC2CCN(C)CC2)c(Cc2cccc(Cl)c2)s1 [Example 50] = 10000 to 50000 nM

Query the reported IC50 for MutSβ (Homo sapiens, UniProt P20585+P43246); item: CNS(=O)(=O)OCC(=O)Nc1nc(C)c(Cc2ccc(C(F)(F)F)cc2)s1 [Example 32]
1000 to 10000 nM

Query the reported IC50 for MutSβ (Homo sapiens, UniProt P20585+P43246); item: CNS(=O)(=O)OCC(=O)Nc1nc(C)c(Cc2ccc(Cl)cc2)s1 [Example 30]
1000 to 10000 nM

Query the reported IC50 for MutSβ (Homo sapiens, UniProt P20585+P43246); item: Cc1ccc(Cc2sc(NC(=O)COS(=O)(=O)NC(C)(C)C)nc2C)cc1 [Example 43]
10000 to 50000 nM
